System: rodent lifetime carcinogenesis bioassay, tumor incidence TD50
Test: carcinogenic potency in animals, long-term in vivo studies, CPDB compilation (AID 1745844)
Settings: rat; strain Fischer 344; females; in drinking water; site: pharynx + tongue; lesion: squamous-cell carcinoma + squamous-cell papilloma; dosed 98 weeks; study length 104 weeks

[
  {
    "smiles entry": "Cc1ccc(S(=O)(=O)Oc2ccc(N=Nc3ccc(-c4ccc(N=Nc5c(O)ccc6cc(S(=O)(=O)O)cc(S(=O)(=O)O)c56)c(C)c4)cc3C)cc2)cc1",
    "measurement target": "rodent lifetime carcinogenesis bioassay, tumor incidence TD50",
    "TD50": "31.4 mg/kg/day"
  }
]

The reported measurements were obtained from PubChem BioAssay AID1745844.
